Taken from PubChem BioAssay (Tox21).

- test: qHTS assay to identify small molecule agonists of the farnesoid-X-receptor (FXR) signaling pathway - cell viability counter screen (AID 743218); also: % is scaled to controls: 0 for no effect and ±100 for the full control effect; nearly all actives have a fitted effect of over 45% in size
- assayContext: FXR-bla HEK293T viability, CellTiter-Glo luminescence, 16 h; series mostly up to 62.6 µM
Results filed as inconclusive are left out. Activity calls are given as the source filed them. Calls follow the shape of the dose curve; as a rule, active = well fitted cell-killing curve with a large enough effect in the repeat runs; inconclusive = weak or mixed curves, or effect the other way; inactive = no such curve, though single readings can be large or run the other way.
endpointLabel: viability change, negative = cytotoxic

These recorded examples may help you get a feel for the data.
{"compound": "O=C1c2ccccc2C(=O)C1c1ccccc1", "viability change, negative = cytotoxic": "inactive"}
{"compound": "CCN(CC)CC(=O)Nc1c(C)cccc1C", "viability change, negative = cytotoxic": "inactive"}
{"compound": "Oc1ccccc1-c1nnco1", "viability change, negative = cytotoxic": "inactive"}
{"compound": "CC(C)C(=O)OCCc1ccccc1", "viability change, negative = cytotoxic": "inactive"}
{"compound": "C[C@H](CCC(=O)O)[C@H]1CC[C@H]2[C@@H]3C(=O)C[C@@H]4CC(=O)CC[C@]4(C)[C@H]3CC(=O)[C@]12C", "viability change, negative = cytotoxic": "inactive"}
{"compound": "C[Si](C)(C)C", "viability change, negative = cytotoxic": "inactive"}

Incoming: Recorded viability change, negative = cytotoxic for C[Si](C)=O , please?
Outgoing: 5.27% [at 5.95 µM] (inactive)

Incoming: Recorded viability change, negative = cytotoxic for NS(=O)(=O)c1ccc(NC(=O)CCC(=O)O)cc1 , please?
Outgoing: inactive

Incoming: Recorded viability change, negative = cytotoxic for CCc1ccc(C=O)cc1 , please?
Outgoing: inactive

Incoming: Recorded viability change, negative = cytotoxic for CC(COC(C)(C)C)OCCCO (centres undefined) , please?
Outgoing: inactive

Incoming: Recorded viability change, negative = cytotoxic for O=C(c1ccc(O)cc1)c1ccc(O)c(O)c1O , please?
Outgoing: inactive

Incoming: Recorded viability change, negative = cytotoxic for Nc1ccc(S(=O)(=O)Nc2ccc(Cl)nn2)cc1 , please?
Outgoing: inactive

* * *

- experimentalTarget: Nuclear receptor subfamily 1 group I member 2 (Homo sapiens)
- test: Human pregnane X receptor (PXR) small molecule agonists, qHTS assay (AID 1346982); also: nearly all actives have a fitted effect of over 35% in size; also: potency is read from the fitted curve at half-maximal effect; as to activation: % is scaled to controls: 0 for no effect and ±100 for the full control effect
- assayContext: PXR-Luc HepG2, CYP3A4 luciferase reporter, 24 h; series mostly up to 92.4 µM
Results filed as inconclusive are left out. Active and inactive are the calls of the source. Calls follow the shape of the dose curve; as a rule, active = well fitted activation curve with a large enough effect in the repeat runs; inconclusive = weak or mixed curves; inactive = no such curve, though single readings can be large or run the other way.
endpointLabel: Potency

These recorded examples may help you get a feel for the data.
{"compound": "CCOCCOC(=O)/C=C/c1ccc(OC)cc1", "valueObserved": "inactive"}
{"compound": "O=S(=O)(O)c1ccc2cc(O)c(S(=O)(=O)O)cc2c1", "valueObserved": "inactive"}
{"compound": "NS(=O)(=O)c1ccc(NC(=O)CCC(=O)O)cc1", "valueObserved": "inactive"}
{"compound": "CC(C)(C)c1nnc(NS(=O)(=O)c2ccc(N)cc2)s1", "valueObserved": "inactive"}
{"compound": "Cc1cccc2nccnc12", "valueObserved": "inactive"}
{"compound": "CCCCOC(=O)c1ccccc1", "valueObserved": "inactive"}
{"compound": "CC(=O)Nc1ccc(S(=O)(=O)Nc2ccc([N+](=O)[O-])cc2)cc1", "valueObserved": "inactive"}
{"compound": "BrCCCCCBr", "valueObserved": "inactive"}

Incoming: Recorded Potency for CCOC(=O)CC(=O)c1ccccc1 , please?
Outgoing: 68.6 µM (active)

Incoming: Recorded Potency for CCC(C)NC(N)=O (centres undefined) , please?
Outgoing: inactive

Incoming: Recorded Potency for C=C(C)C(=O)OCCNC(C)(C)C , please?
Outgoing: inactive

Incoming: Recorded Potency for OCCN(CCO)c1cccc(Cl)c1 , please?
Outgoing: inactive

Incoming: Recorded Potency for C[C@@H](O)[C@H]1C(=O)N2C(C(=O)O)=C(SCCN=CN)C[C@H]12 , please?
Outgoing: inactive

Incoming: Recorded Potency for C=Cc1ccccn1 , please?
Outgoing: inactive
